- Test system: 997537-175-T-J1-PDC complex spheroid viability
- Procedure Text: Anticancer human tumor 997537-175-T-J1-PDC patient-derived colon adenocarcinoma cell line growth inhibition [GQUAD]
- Condition Details: second compound 1 µM; first compound 1 µM; active compounds read low
Decide using viability, T/C alone. Strictly below 90%: T. Equal to or above 90%: F.

Please review the entries below; each comes with its answer.
- Molecule: "COc1ncnc(C2CC2)c1-c1ncc2cnn(Cc3ccc(-c4nc(C(F)(F)F)cn4C(C)C)cc3)c2n1 + Cc1[nH]c2ccc(F)cc2c1-c1nc2c3cccnc3c3ncccc3c2[nH]1"
  Assigned Label: "F"
- Molecule: "CC(C)(O)C1CCC(Nc2ccc3ncc(-c4cccc(C(F)(F)F)c4)n3n2)CC1 (stereo unspecified) + Cc1[nH]c2ccc(F)cc2c1-c1nc2c3cccnc3c3ncccc3c2[nH]1"
  Assigned Label: "F"

Here's an entry: CC(C)n1c(=O)n(C)c2cnc3cc(F)c(-c4ccc(OCCCN5CCCCC5)nc4)cc3c21 + CN(C)c1ccc(Nc2c3ccc(NC(=O)CCN4CCCC4)cc3nc3cc(NC(=O)CCN4CCCC4)ccc23)cc1 . Is its viability, T/C below 90%? F

Given the entry CCCS(=O)(=O)Nc1ccc(F)c(C(=O)c2c[nH]c3ncc(-c4ccc(Cl)cc4)cc23)c1F + Cc1cnc(CNC(=O)c2c(=O)c3ccc(N4CCCN(C)CC4)nc3n3c2sc2ccccc23)cn1 , would its reported viability, T/C be below 90%? T

Please let me know if Nc1ccn(C2OC(CO)C(O)C2(F)F)c(=O)n1 (stereo unspecified) + Cc1cnc(CNC(=O)c2c(=O)c3ccc(N4CCCN(C)CC4)nc3n3c2sc2ccccc23)cn1 shows viability, T/C below 90%. T

====

- Tested on: 997537-175-T-J1-PDC complex spheroid viability
- Procedure Text: Anticancer human tumor 997537-175-T-J1-PDC cell line growth inhibition [GQUAD];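 further: spheroids exposed to the agents for 7 days; 100% = DMSO vehicle control viability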
- Condition Details: second compound 0.316 µM; first compound 0.000999 µM; active compounds read low
Documented viability, T/C across a set of molecules
Dear colleague, please return just the value in %, with no unit written.

- Molecule: "CCc1c2c(nc3ccc(O)cc13)-c1cc3c(c(=O)n1C2)COC(=O)[C@]3(O)CC + CN(C)c1ccc(Nc2c3ccc(NC(=O)CCN4CCCC4)cc3nc3cc(NC(=O)CCN4CCCC4)ccc23)cc1"
  Property Measured: "viability, T/C"
  Value Reported: 97

Just so you know, measured viability, T/C for Cn1ncnc1[C@H]1c2n[nH]c(=O)c3cc(F)cc(c23)N[C@@H]1c1ccc(F)cc1 + Cc1[nH]c2ccc(F)cc2c1-c1nc2c3cccnc3c3ncccc3c2[nH]1 came out at 102

# molecule Cc1[nH]c2ccccc2c1CCNCc1ccc(/C=C/C(=O)NO)cc1 + Cc1[nH]c2ccc(F)cc2c1-c1nc2c3cccnc3c3ncccc3c2[nH]1 ; its viability, T/C = 92.1

viability, T/C in this record for Cn1ncnc1[C@H]1c2n[nH]c(=O)c3cc(F)cc(c23)N[C@@H]1c1ccc(F)cc1 + Cc1cnc(CNC(=O)c2c(=O)c3ccc(N4CCCN(C)CC4)nc3n3c2sc2ccccc23)cn1 : 107

The molecule identified as Cc1[nH]c2ccccc2c1CCNCc1ccc(/C=C/C(=O)NO)cc1 + CN(C)c1ccc(Nc2c3ccc(NC(=O)CCN4CCCC4)cc3nc3cc(NC(=O)CCN4CCCC4)ccc23)cc1 registered its viability, T/C at 91.5

====

Collected viability, T/C values appear next to each entry.
- Tested on: 997537-175-T-J1-PDC complex spheroid viability
- Procedure Text: Anticancer human tumor 997537-175-T-J1-PDC cell line growth inhibition [GQUAD];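 further: spheroids exposed to the agents for 7 days; 100% = DMSO vehicle control viability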
- Condition Details: second compound 0.1 µM; first compound 0.1 µM; active compounds read low
Unit % implied. Number only.

Please review the following examples before continuing.
- Molecule: "COc1cc(C2c3cc4c(cc3C(OC3OC5COC(C)OC5C(O)C3O)C3COC(=O)C23)OCO4)cc(OC)c1O (stereo unspecified) + Cc1[nH]c2ccc(F)cc2c1-c1nc2c3cccnc3c3ncccc3c2[nH]1"
  Result Unit: "%"
  Value Reported: 75.9
- Molecule: "C=CCn1c(=O)c2cnc(Nc3ccc(N4CCN(C)CC4)cc3)nc2n1-c1cccc(C(C)(C)O)n1 + Cc1[nH]c2ccc(F)cc2c1-c1nc2c3cccnc3c3ncccc3c2[nH]1"
  Result Unit: "%"
  Value Reported: 97.1

// sample CC1COCCN1c1cc(-c2ccnn2C)c2ccnc(-c3ccn[nH]3)c2n1 (stereo unspecified) + CN(C)c1ccc(Nc2c3ccc(NC(=O)CCN4CCCC4)cc3nc3cc(NC(=O)CCN4CCCC4)ccc23)cc1 , its viability, T/C was 81.9

viability, T/C for Cc1cccc(N(C)C(=O)C2C(O)CCN2c2nc(C)cc(C(F)(F)F)c2C#N)c1 (stereo unspecified) + Cc1cnc(CNC(=O)c2c(=O)c3ccc(N4CCCN(C)CC4)nc3n3c2sc2ccccc23)cn1 is 94.2

The molecule listed as O=C(c1cc(Cc2n[nH]c(=O)c3ccccc23)ccc1F)N1CCN(C(=O)C2CC2)CC1 + Cc1cnc(CNC(=O)c2c(=O)c3ccc(N4CCCN(C)CC4)nc3n3c2sc2ccccc23)cn1 shows viability, T/C equal to 92.5

Note to self: viability, T/C recorded for CC(=O)O[C@H]1C(=O)[C@@]2(C)[C@H]([C@H](OC(=O)c3ccccc3)[C@]3(O)C[C@H](OC(=O)[C@H](O)[C@@H](NC(=O)c4ccccc4)c4ccccc4)C(C)=C1C3(C)C)[C@]1(OC(C)=O)CO[C@@H]1C[C@@H]2O + Cc1[nH]c2ccc(F)cc2c1-c1nc2c3cccnc3c3ncccc3c2[nH]1 was 106

Quick note, viability, T/C for CC(C)n1c(=O)n(C)c2cnc3cc(F)c(-c4ccc(OCCCN5CCCCC5)nc4)cc3c21 + Cc1cnc(CNC(=O)c2c(=O)c3ccc(N4CCCN(C)CC4)nc3n3c2sc2ccccc23)cn1 landed at 95.9

O=c1[nH]cc(F)c(=O)[nH]1 + Cc1[nH]c2ccc(F)cc2c1-c1nc2c3cccnc3c3ncccc3c2[nH]1 has a reported viability, T/C of 87.7

Form: molecule = C=CC(=O)N1CCN(c2nc(=O)n(-c3c(C)ccnc3C(C)C)c3nc(-c4c(O)cccc4F)c(F)cc23)C(C)C1 (stereo unspecified) + CN(C)c1ccc(Nc2c3ccc(NC(=O)CCN4CCCC4)cc3nc3cc(NC(=O)CCN4CCCC4)ccc23)cc1 ; viability, T/C = 88.4

So for Cc1cccc(N(C)C(=O)C2C(O)CCN2c2nc(C)cc(C(F)(F)F)c2C#N)c1 (stereo unspecified) + Cc1[nH]c2ccc(F)cc2c1-c1nc2c3cccnc3c3ncccc3c2[nH]1 , the logged viability, T/C turned out to be 97.8

viability, T/C reading for COc1ccc([C@@H](O)c2cc(-c3ncnc4cc(N5CCOCC5)ccc34)c(F)cc2Cl)nn1 + Cc1[nH]c2ccc(F)cc2c1-c1nc2c3cccnc3c3ncccc3c2[nH]1 : 86.2

====

Measured viability, T/C by item
- Test system: 997537-175-T-J1-PDC complex spheroid viability
- Procedure Text: Anticancer human tumor 997537-175-T-J1-PDC cell line growth inhibition [GQUAD];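 further: spheroids exposed to the agents for 7 days; 100% = DMSO vehicle control viability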
- Condition Details: second compound 1 µM; first compound 3.16 µM; active compounds read low
Express the result in % but write the number alone.

Solved cases below.
- Molecule: "CC(C)n1c(=O)n(C)c2cnc3cc(F)c(-c4ccc(OCCCN5CCCCC5)nc4)cc3c21 + Cc1[nH]c2ccc(F)cc2c1-c1nc2c3cccnc3c3ncccc3c2[nH]1"
  Property Measured: "viability, T/C"
  Value Reported: 112
- Molecule: "CCCS(=O)(=O)Nc1ccc(F)c(C(=O)c2c[nH]c3ncc(-c4ccc(Cl)cc4)cc23)c1F + CN(C)c1ccc(Nc2c3ccc(NC(=O)CCN4CCCC4)cc3nc3cc(NC(=O)CCN4CCCC4)ccc23)cc1"
  Property Measured: "viability, T/C"
  Value Reported: 65.4
- Molecule: "CC(=O)O[C@H]1C(=O)[C@@]2(C)[C@H]([C@H](OC(=O)c3ccccc3)[C@]3(O)C[C@H](OC(=O)[C@H](O)[C@@H](NC(=O)c4ccccc4)c4ccccc4)C(C)=C1C3(C)C)[C@]1(OC(C)=O)CO[C@@H]1C[C@@H]2O + Cc1cnc(CNC(=O)c2c(=O)c3ccc(N4CCCN(C)CC4)nc3n3c2sc2ccccc23)cn1"
  Property Measured: "viability, T/C"
  Value Reported: 73.5

For CC(C)(O)C1CCC(Nc2ccc3ncc(-c4cccc(C(F)(F)F)c4)n3n2)CC1 (configuration not stated) + CN(C)c1ccc(Nc2c3ccc(NC(=O)CCN4CCCC4)cc3nc3cc(NC(=O)CCN4CCCC4)ccc23)cc1 on 997537-175-T-J1-PDC complex spheroid viability, measured viability, T/C was 30.4

Reported viability, T/C (997537-175-T-J1-PDC complex spheroid viability) for entry CC(C)n1c(=O)n(C)c2cnc3cc(F)c(-c4ccc(OCCCN5CCCCC5)nc4)cc3c21 + Cc1cnc(CNC(=O)c2c(=O)c3ccc(N4CCCN(C)CC4)nc3n3c2sc2ccccc23)cn1 is 114
